Numbers sourced from PubChem BioAssay (EPA / NIEHS).

# measurementNotes: Tanguay_ZF_120hpf_ActivityScore_legacy: (Legacy) Oregon State University Tanguay Lab 120 Hour Post-fertilization zebrafish Assay Score for Activity (AID 2283742);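 as to AC50: dechorionated Tropical 5D wild-type zebrafish embryos held singly per well; static exposure from 6 hpf until 120 hpf at 28 °C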
Active and inactive are the calls of the source. The calls were made as follows: active = hit-call score of the fitted dose curve at least 0.9, where 1 is the maximum; inconclusive = response in the unintended direction; inactive = score below 0.9.
measurementKind: AC50

- compound: "CC(C)OC(=O)C(C)(C)Oc1ccc(C(=O)c2ccc(Cl)cc2)cc1"
  measurementKind: "AC50"
  measurement: "inactive"
- compound: "CC(=O)O[C@]1(C(C)=O)CC[C@H]2[C@@H]3C=C(Cl)C4=CC(=O)[C@@H]5C[C@@H]5[C@]4(C)[C@H]3CC[C@@]21C"
  measurementKind: "AC50"
  measurement: "inactive"
- compound: "C#CC(O)C(CC)CCCC (centres undefined)"
  measurementKind: "AC50"
  measurement: "inactive"
- compound: "O=[Si]=O"
  measurementKind: "AC50"
  measurement: "inactive"
- compound: "CC(C)c1cccc(C(C)C)c1"
  measurementKind: "AC50"
  measurement: "inactive"

Would you kindly look at the next entry?
Entry NC(=Nc1ccccc1)Nc1ccccc1 has what AC50?
5.46 nM (active)
